Target: CCKA receptor (Rattus norvegicus, UniProt P30551)
Construct: Pancreatic membranes were prepared in a similar way; from tissue; host or cells: rat pancreas membranes
Sequence (P30551 1-444): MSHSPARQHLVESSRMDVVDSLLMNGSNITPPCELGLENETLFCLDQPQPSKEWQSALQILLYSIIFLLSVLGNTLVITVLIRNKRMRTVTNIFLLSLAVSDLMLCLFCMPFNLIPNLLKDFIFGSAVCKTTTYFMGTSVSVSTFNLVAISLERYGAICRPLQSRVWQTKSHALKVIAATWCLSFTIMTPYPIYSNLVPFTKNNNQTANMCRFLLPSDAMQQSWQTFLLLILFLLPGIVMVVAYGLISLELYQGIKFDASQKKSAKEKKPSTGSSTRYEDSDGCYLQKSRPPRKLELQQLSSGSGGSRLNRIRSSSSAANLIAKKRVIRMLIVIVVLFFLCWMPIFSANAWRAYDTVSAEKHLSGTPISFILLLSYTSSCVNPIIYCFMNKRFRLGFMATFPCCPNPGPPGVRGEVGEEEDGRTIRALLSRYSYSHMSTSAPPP
Assay: 125I-CCK-8 receptor binding assay, CCKA (rat pancreas)
Test Readout: IC50 (nM)
# number only, unit nM dropped from output

Prompt: Answer with the recorded IC50 for the molecule listed here: Cc1cccc(N(C)C2N=C(c3ccccc3)c3cc(Cl)ccc3NC2=O)c1 (stereo not drawn)
Completion: 8

Prompt: Answer with reported IC50 of COc1cccc(NC2N=C(c3ccccc3)c3cc(Cl)ccc3NC2=O)c1 (stereo not drawn)
Completion: 10

Prompt: Input O=C1Nc2ccc(Cl)cc2C(c2ccccc2)=NC1Nc1cccc([N+](=O)[O-])c1 (stereo not drawn) , output reported IC50.
Completion: 11

Prompt: In one line, give reported IC50 of the entry CN(c1ccccc1)C1N=C(c2ccccc2)c2cc(Cl)ccc2NC1=O (stereo not drawn) .
Completion: 14

Prompt: Find the measured IC50 of O=C1Nc2ccc(Cl)cc2C(c2ccccc2)=NC1Nc1cccc(Cl)c1 (stereo not drawn) and report it.
Completion: 270

====

Target: CCKB receptor (Cavia porcellus)
Sequence (H0VZC5 1-426): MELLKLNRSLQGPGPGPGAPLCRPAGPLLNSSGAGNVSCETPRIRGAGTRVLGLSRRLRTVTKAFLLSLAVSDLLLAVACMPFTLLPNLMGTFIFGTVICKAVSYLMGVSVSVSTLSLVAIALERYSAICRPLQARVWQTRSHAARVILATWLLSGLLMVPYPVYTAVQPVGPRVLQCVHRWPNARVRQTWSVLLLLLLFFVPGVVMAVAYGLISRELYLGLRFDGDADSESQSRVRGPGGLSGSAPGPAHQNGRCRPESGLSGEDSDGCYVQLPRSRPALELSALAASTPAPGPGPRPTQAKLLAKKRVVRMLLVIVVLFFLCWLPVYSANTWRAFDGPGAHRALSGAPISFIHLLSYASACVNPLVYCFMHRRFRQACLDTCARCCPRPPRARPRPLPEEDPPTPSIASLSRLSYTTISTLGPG
Test: 125I-CCK-8 receptor binding assay, CCKB (guinea pig cerebral cortex)
Conditions: IC50 CCKB, Table 3
Test Readout: IC50 (µM)
Write the number in µM without appending the unit.

Prompt: Retrieve IC50 measured for Cc1cccc(NC2N=C(c3ccccc3)c3cc(Cl)ccc3NC2=O)c1C (centres unmarked) [Example 49] and print it.
Completion: 6

Prompt: Answer with the recorded IC50 of O=C1Nc2ccc(Cl)cc2C(c2ccccc2)=NC1Nc1ccc([N+](=O)[O-])cc1 (centres unmarked) [Example 37] only.
Completion: 8.5

Prompt: Give a short answer stating reported IC50 for O=C1Nc2ccc(Cl)cc2C(c2ccccc2)=NC1Nc1ccccc1[N+](=O)[O-] (centres unmarked) [Example 35] .
Completion: 7.5

====

Biological target: UniProtKB H0VZC5
Assay: 125I-CCK-8 receptor binding assay, CCKB (guinea pig cerebral cortex)
Settings: IC50 CCKB, Table 2
pIC50: −log10 of the molar value.
Test Readout: pIC50

Prompt: Please supply the value of reported pIC50 for the item CC(C)N(C1CCCCC1)C1N=C(c2ccccc2)c2cc(Cl)ccc2NC1=O (stereo not drawn) [Example 33]
Completion: < 4.82

Prompt: Determine its reported pIC50: O=C1Nc2ccc(Cl)cc2C(c2ccccc2)=NC1N1CCCCC1 (stereo not drawn) [Example 32]
Completion: < 4.82

Prompt: Dear colleague, please send me the reported pIC50 for CCN(C1CCCCC1)C1N=C(c2ccccc2)c2cc(Cl)ccc2NC1=O (stereo not drawn) [Example 34] when you can.
Completion: < 4.82

Where these numbers come from: patent US20070185094A1
